ASSAY SUMMARY: Fluorescence excitation and emission spectra of camptothecin drugs free in solution and bound to liposomes
Assay type: physicochemical
STUDY CONDITIONS: DMPG liposomes 0.29 M, pH 7.4, 37° C.
Counter-ions that a name gives are not always drawn.
MEASURED QUANTITY: λMAX emission, DMPG (nm)
State the answer as a number, implicitly in nm.

CC[C@@]1(O)C(=O)OCc2c1cc1n(c2=O)Cc2cc3c(CN(C)C)c(O)ccc3nc2-1 [topotecan] | 533
CCC1(O)C(=O)OCc2c1cc1n(c2=O)Cc2cc3cc(O)ccc3nc2-1 (stereo not shown) [10-hydroxycamptothecin] | 550
CCC(O)(C(=O)O)c1cc2n(c(=O)c1CO)Cc1cc3ccccc3nc1-2 (stereo not shown) [camptothecin carboxylate, camptothecin carboxylate sodium salt] | 435

Write down λMAX emission, DMPG measured for item CCC1(O)C(=O)OCc2c1cc1n(c2=O)Cc2cc3c(Cl)c4c(cc3nc2-1)OCO4 (stereo not shown) 417
